So I've got IC50 readings for Human β2 adrenoceptor (Homo sapiens), take a look.
Counter-ions that a name gives are not always drawn.

Data request: Give Human β2 adrenoceptor (Homo sapiens) IC50 for the following compound: O=C(COc1cccc([C@](O)(C(=O)OCC2CCN(Cc3ccccc3)CC2)c2ccccc2)c1)N1CC2(C1)CN(C(=O)c1ccc(CCNC[C@H](O)c3ccc(O)c4[nH]c(=O)ccc34)cc1)C2 [Compound 93]
Data returned: < 0.3 nM

Data request: Please report the measured IC50 for O=C(Nc1cccc(C(O)(C(=O)OCC2CCN(Cc3ccccc3)CC2)c2ccccc2)c1)OCCCCCNC[C@H](O)c1ccc(O)c2[nH]c(=O)ccc12 (some centres unmarked) [Compound 54, bis hydrochloride] tested on Human β2 adrenoceptor (Homo sapiens).
Sequence (P07550 whole entry): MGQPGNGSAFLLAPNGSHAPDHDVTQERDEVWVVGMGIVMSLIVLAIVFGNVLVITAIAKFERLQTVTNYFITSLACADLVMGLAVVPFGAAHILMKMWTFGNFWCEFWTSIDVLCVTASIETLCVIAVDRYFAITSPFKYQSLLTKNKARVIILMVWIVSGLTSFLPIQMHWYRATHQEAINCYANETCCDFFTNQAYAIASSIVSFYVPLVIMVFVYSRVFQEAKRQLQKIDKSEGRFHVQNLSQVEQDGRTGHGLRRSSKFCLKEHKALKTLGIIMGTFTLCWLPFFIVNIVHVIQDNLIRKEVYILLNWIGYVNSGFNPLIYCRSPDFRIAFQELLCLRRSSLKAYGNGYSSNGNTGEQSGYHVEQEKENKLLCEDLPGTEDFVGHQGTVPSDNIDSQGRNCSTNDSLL
Data returned: < 0.3 nM

Data request: With Human β2 adrenoceptor (Homo sapiens) as the test system, provide measured IC50 for this compound: O=C(c1cccc(COc2cccc([C@](O)(C(=O)OCC3CCN(Cc4ccccc4)CC3)c3ccccc3)c2)c1)N(CCCNC[C@H](O)c1ccc(O)c2[nH]c(=O)ccc12)Cc1ccccc1 [Compound 45]
Data returned: 0.3 to 3 nM

Data request: Quote IC50 with test system Human β2 adrenoceptor (Homo sapiens) for O=C(COc1cccc([C@](O)(C(=O)OCC2CCN(Cc3ccccc3)CC2)c2ccccc2)c1)NCCNC(=O)c1ccc(CNC[C@H](O)c2ccc(O)c3[nH]c(=O)ccc23)cc1 [Compound 57]
Data returned: 0.3 to 3 nM

Data request: Lab note: Human β2 adrenoceptor (Homo sapiens) assay, enter IC50 for COc1cc(C(=O)N[C@H]2C[C@H](NC(=O)COc3cccc([C@](O)(C(=O)OCC4CCN(Cc5ccccc5)CC4)c4ccccc4)c3)C2)c(Cl)cc1CNC[C@H](O)c1ccc(O)c2[nH]c(=O)ccc12 [Compound 137] here
Data returned: < 0.3 nM

----------
// endpoint IC50 / system Human β2 adrenoceptor (Homo sapiens)

Data request: Lab note: Human β2 adrenoceptor (Homo sapiens) assay, enter IC50 for `CN1CCC(COC(=O)[C@](O)(c2ccccc2)c2cccc(OCCCCCNC[C@H](O)c3ccc(O)c4[nH]c(=O)ccc34)c2)CC1` here
Data returned: 0.3 to 3 nM

Data request: Check Human β2 adrenoceptor (Homo sapiens) data and give IC50 for `O=C(COc1cccc([C@](O)(C(=O)OCC2CCN(Cc3ccccc3)CC2)c2ccccc2)c1)N[C@H]1C[C@H](NC(=O)c2ccc(CNC[C@H](O)c3ccc(O)c4[nH]c(=O)ccc34)cc2F)C1` .
Data returned: < 0.3 nM

Data request: Fill: IC50 (Human β2 adrenoceptor (Homo sapiens)) for this molecule `O=C(COc1cccc([C@](O)(C(=O)OCC2CCN(Cc3ccccc3)CC2)c2ccccc2)c1)N1C[C@H]2CCN(C(=O)c3ccc(CCNC[C@H](O)c4ccc(O)c5[nH]c(=O)ccc45)cc3)[C@H]2C1`
Data returned: 0.3 to 3 nM

Data request: # lookup: Human β2 adrenoceptor (Homo sapiens) IC50, key = `O=C(NCCCOc1cccc([C@](O)(C(=O)O[C@@H]2CCN(Cc3ccccc3)C2)c2ccccc2)c1)c1ccc(CNC[C@H](O)c2ccc(O)c3[nH]c(=O)ccc23)cc1`
Data returned: < 0.3 nM

Data request: Answer with IC50 of `O=C(OCC1CCN(Cc2ccccc2)CC1)[C@](O)(c1ccccc1)c1cccc(OCCCCCNC[C@H](O)c2ccc(O)c3[nH]c(=O)ccc23)c1` measured for Human β2 adrenoceptor (Homo sapiens).
Data returned: < 0.3 nM

API: the following record is the query input.
Data request: Supply IC50 measured with Human β2 adrenoceptor (Homo sapiens) for `O=C(COc1cccc([C@](O)(C(=O)OCC2CCN(Cc3ccccc3)CC2)c2ccccc2)c1)N[C@H]1C[C@H](NC(=O)c2ccc(CNC[C@H](O)c3ccc(O)c4[nH]c(=O)ccc34)c(OC(F)(F)F)c2)C1` .
Data returned: 0.3 to 3 nM
